src = ChEMBL document CHEMBL4613267

Target: Muscarinic acetylcholine receptor M2 (Homo sapiens, UniProt P08172)
Sequence (P08172 whole entry): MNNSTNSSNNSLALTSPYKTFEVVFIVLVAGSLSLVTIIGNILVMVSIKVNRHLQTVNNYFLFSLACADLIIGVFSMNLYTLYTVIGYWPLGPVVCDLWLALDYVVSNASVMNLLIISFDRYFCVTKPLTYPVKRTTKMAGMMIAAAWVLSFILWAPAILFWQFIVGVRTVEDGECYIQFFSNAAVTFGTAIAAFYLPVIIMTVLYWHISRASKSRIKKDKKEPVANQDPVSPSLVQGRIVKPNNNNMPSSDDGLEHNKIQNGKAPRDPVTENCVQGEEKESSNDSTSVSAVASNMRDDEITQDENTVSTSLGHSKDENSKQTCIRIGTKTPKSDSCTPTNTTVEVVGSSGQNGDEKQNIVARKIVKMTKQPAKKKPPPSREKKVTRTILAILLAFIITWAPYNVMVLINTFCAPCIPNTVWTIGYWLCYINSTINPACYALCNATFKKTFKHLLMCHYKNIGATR
Test: Displacement of [3H]NMS from human recombinant muscarinic receptor M2 expressed in CHO-K1 cell membranes incubated for 2 hrs by scintillation counting method
pKi: −log10 of the molar value.

| Compound | pKi |
| --- | --- |
| O=C(O[C@H]1C[C@H]2CC[C@@H](C1)[N+]21CCCC1)C(O)(c1ccccc1)c1ccccc1 [TROSPIUM CHLORIDE] | 8.94 |

* * *

Target: Muscarinic acetylcholine receptor M5 (Homo sapiens)
Sequence (P08912 whole entry): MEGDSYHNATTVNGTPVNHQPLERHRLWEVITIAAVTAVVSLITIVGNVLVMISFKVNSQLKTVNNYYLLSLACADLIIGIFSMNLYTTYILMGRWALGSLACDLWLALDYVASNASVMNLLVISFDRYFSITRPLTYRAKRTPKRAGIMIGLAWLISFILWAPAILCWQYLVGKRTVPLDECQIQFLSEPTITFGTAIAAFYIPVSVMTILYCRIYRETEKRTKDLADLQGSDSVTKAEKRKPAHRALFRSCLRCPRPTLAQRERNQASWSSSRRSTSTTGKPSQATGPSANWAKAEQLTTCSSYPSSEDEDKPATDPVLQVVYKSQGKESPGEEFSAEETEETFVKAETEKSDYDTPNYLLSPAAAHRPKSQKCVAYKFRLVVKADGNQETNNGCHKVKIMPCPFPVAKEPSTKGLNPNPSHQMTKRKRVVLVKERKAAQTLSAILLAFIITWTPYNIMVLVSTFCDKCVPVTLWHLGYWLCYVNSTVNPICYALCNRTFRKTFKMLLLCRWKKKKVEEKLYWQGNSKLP
Assay: Displacement of [3H]NMS from human recombinant muscarinic receptor M5 expressed in CHO-K1 cell membranes incubated for 2 hrs by scintillation counting method

| Compound | Ki [nM] |
| --- | --- |
| O=C(O[C@H]1C[C@H]2CC[C@@H](C1)[N+]21CCCC1)C(O)(c1ccccc1)c1ccccc1 [TROSPIUM CHLORIDE] | 6.03 |

* * *

Molecular target: Muscarinic acetylcholine receptor M4 (Homo sapiens, UniProt P08173)
Sequence (P08173 whole entry): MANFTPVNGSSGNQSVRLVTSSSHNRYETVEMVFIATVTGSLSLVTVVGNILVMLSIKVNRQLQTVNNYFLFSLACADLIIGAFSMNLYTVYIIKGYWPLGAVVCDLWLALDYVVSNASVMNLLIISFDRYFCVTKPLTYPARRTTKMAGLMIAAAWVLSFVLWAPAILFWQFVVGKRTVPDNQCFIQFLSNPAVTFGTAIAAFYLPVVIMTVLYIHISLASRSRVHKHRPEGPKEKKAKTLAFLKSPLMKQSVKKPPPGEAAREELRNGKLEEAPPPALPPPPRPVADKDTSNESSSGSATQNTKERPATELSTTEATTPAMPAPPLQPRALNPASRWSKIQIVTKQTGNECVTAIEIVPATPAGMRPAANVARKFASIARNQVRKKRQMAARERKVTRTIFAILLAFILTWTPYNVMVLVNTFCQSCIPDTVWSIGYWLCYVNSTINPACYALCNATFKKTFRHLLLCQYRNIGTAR
Experiment: Displacement of [3H]NMS from human recombinant muscarinic receptor M4 expressed in CHO-K1 cell membranes incubated for 2 hrs by scintillation counting method
pKi: −log10 of the molar value.

| Compound | pKi |
| --- | --- |
| O=C(O[C@H]1C[C@H]2CC[C@@H](C1)[N+]21CCCC1)C(O)(c1ccccc1)c1ccccc1 [TROSPIUM CHLORIDE] | 8.84 |
